Provide the reported pEC50 of each item.
targetOrSystem: T1, EBOV VLP (Ebola virus (EBOV), UniProt Q05320 33-676)
T1 sequence: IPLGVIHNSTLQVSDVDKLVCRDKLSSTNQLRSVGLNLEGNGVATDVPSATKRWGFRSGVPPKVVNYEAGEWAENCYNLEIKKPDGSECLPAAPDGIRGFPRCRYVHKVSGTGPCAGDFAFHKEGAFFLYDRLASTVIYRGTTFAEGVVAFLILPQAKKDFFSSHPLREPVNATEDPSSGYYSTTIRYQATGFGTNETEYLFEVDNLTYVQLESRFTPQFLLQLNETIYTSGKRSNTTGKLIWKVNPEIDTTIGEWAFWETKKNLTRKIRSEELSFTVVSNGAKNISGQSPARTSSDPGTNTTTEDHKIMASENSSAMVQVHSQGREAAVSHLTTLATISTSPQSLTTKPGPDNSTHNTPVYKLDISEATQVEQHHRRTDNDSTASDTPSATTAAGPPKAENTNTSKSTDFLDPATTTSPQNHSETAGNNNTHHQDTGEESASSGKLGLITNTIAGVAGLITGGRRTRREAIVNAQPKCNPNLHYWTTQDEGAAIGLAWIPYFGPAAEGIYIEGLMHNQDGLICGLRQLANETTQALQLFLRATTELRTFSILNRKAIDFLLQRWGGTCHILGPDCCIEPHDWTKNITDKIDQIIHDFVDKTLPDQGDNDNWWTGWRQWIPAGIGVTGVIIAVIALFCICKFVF
assayDetails: ELISA
One number for each entry, as −log10 of the molar value.

FVM37 (antibody, V domains shown) VH: QVQLVQSGAEVKRPGESLKISCKTSGYRFTSSWISWVRQMPGKGLEWLGSIYPGDSETKYNPSFQGHVTISADKSVTTTYLKWSSLKASDTATYYCVKGSETWGQGVLVTVSS VL: SSELTQPASLSASPGASASLTCTFSGGINVAGYNILWYQQKAGSPPRYLLRYKSDSTKDQGSGVPSRFSGSKDASANTGILRISGLQSEDEADYYCAIGHSSGWIFGGGTRLTVL; 9.64
FVM22 (antibody, V domains shown) VH: EVQLVQSGAEVKRPGESLTISCKTSGYSFTDSWVAWVRQMPGKGLEWLGSIYPGDSETKYNPSFQGHVTISADKSISTAYLQWSSLKASDTATYYCAKGSETWGQGVLVTVSS VL: SSGLTQPASLSASPGASASLTCTFSGGINVAGYNILWYQQKAGSPPRYLLRYKSDSTKDQGSGVPSRFSGSKDASANTGILRISGLQSEDEADYYCAIGHSSGWIFGGGTRLTVL; 9.60

Working through the 2 binders below one at a time, give pEC50 for each.
1. FVM04 (antibody, V domains shown) VH: EVQLVQSGGGLVQPGGSMRLSCEASGLSLSDYFMHWVRQAQGKGLEWIGLIQTKAFTYKTEYPAAVKGRFTISRDDSKNTLYLQMSSLKPEDTALYYCIAVTPDFYYWGQGVLVTVSS VL: DVVMTQSPSFLSASVGDRVTITCRASQDITINLNWFQHKPGKAPKRLIYVASRLERGVPSRFSGSGSGTEFTLTISSLQPEDFATYYCQQYNNYPLTFGPGTKLDIKR
2. FVM38 (antibody, V domains shown) VH: QVQLVQSGAEVKRPGESLTISCKTSGYSFTDSWIGWVRQMPGKGLEWMASIYPDDSETKYNPSFQGHVTISADKSVTTTYLKWSSLKASDTATYYCVKGSETWGQGVLVTVSS VL: QPVLTQPASLSASPGASASLTCTFSGGINVAGYNILWYQQKAGSPPRYLLRYKSDSTKDQGSGVPSRFSGSKDASANTGILRISGLQSEDEADYYCAIGHSSGWIFGGGTRLTVL

Data returned:
1. 9.51
2. 9.60
